Recorded inhibition for the following compounds
target: Tyrosine-protein kinase SYK (Homo sapiens); settings: at 0.1 µM;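 note: reported percentages are mean inhibition values for SYK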

{"COMPOUND": "O=C(Nc1n[nH]c2cc(-c3ccccc3)ccc12)C1CC1", "EXPERIMENTAL SYSTEM": "Tyrosine-protein kinase SYK (Homo sapiens)", "inhibition / %": -3.33}
{"COMPOUND": "CS(=O)(=O)CCNCc1cc(-c2cc3c(Nc4ccc(OCc5cccc(F)c5)c(Cl)c4)ncnc3s2)cs1", "EXPERIMENTAL SYSTEM": "Tyrosine-protein kinase SYK (Homo sapiens)", "inhibition / %": -1.05}
{"COMPOUND": "NC(=O)c1ccc(Oc2nccc(-c3c(-c4ccc(F)cc4)ncn3C3CCNCC3)n2)cc1", "EXPERIMENTAL SYSTEM": "Tyrosine-protein kinase SYK (Homo sapiens)", "inhibition / %": -0.16}
{"COMPOUND": "CCN(CC)Cc1ccc(Nc2nccc(-c3cnn4ncccc34)n2)cc1", "EXPERIMENTAL SYSTEM": "Tyrosine-protein kinase SYK (Homo sapiens)", "inhibition / %": 1.59}
{"COMPOUND": "O=C1Nc2ccccc2/C1=C/Nc1ccc(-n2cncn2)cc1", "EXPERIMENTAL SYSTEM": "Tyrosine-protein kinase SYK (Homo sapiens)", "inhibition / %": -1.28}
{"COMPOUND": "C#Cc1cccc(Nc2ncnc3ccc(OCCCCNCCS(C)(=O)=O)cc23)c1", "EXPERIMENTAL SYSTEM": "Tyrosine-protein kinase SYK (Homo sapiens)", "inhibition / %": -6.78}
{"COMPOUND": "C/C(Nc1ccc(S(N)(=O)=O)cc1)=C1/C(=O)Nc2ccccc21", "EXPERIMENTAL SYSTEM": "Tyrosine-protein kinase SYK (Homo sapiens)", "inhibition / %": -1.12}
{"COMPOUND": "CCS(=O)(=O)c1ccc(OC)c(Nc2ncc(-c3cccc(-c4ccccc4F)c3)o2)c1", "EXPERIMENTAL SYSTEM": "Tyrosine-protein kinase SYK (Homo sapiens)", "inhibition / %": -3.99}
{"COMPOUND": "Nc1nccc(-c2c(-c3ccc(F)cc3)ncn2C2CCC(O)CC2)n1 (stereo not given)", "EXPERIMENTAL SYSTEM": "Tyrosine-protein kinase SYK (Homo sapiens)", "inhibition / %": -1.99}
{"COMPOUND": "COc1ccc2ncn(-c3cc(O[C@H](C)c4ccccc4Cl)c(C(N)=O)s3)c2c1", "EXPERIMENTAL SYSTEM": "Tyrosine-protein kinase SYK (Homo sapiens)", "inhibition / %": -1.79}

* * *

biological target: Glycogen synthase kinase-3 alpha (Homo sapiens) (UniProt P49840); details: at 0.1 µM;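 note: values are mean inhibition of GSK3A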
Sequence (P49840 2-483 limits assumed): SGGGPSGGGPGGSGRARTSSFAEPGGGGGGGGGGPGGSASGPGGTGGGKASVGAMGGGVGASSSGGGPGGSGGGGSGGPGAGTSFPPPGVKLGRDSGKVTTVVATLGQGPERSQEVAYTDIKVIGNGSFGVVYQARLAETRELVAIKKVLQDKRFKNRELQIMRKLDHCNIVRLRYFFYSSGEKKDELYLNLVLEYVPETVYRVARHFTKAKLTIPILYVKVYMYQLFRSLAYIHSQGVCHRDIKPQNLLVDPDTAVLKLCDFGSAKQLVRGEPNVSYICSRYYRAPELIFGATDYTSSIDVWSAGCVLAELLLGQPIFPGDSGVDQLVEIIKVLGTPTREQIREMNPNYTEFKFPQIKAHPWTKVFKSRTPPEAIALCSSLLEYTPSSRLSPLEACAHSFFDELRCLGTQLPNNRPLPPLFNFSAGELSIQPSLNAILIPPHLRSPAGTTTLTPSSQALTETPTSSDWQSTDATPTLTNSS

{"MOLECULE": "COc1ccc(C2=C(N3CCc4ccccc43)C(=O)NC2=O)cc1", "inhibition": "11.5%"}
{"MOLECULE": "Nc1nccc(-c2c(-c3ccc(F)cc3)ncn2C2CCC(O)CC2)n1 (stereo unspecified)", "inhibition": "0.95%"}
{"MOLECULE": "COc1cccc(-n2cnc3c(N/N=C/c4ccncc4)ncnc32)c1", "inhibition": "3.64%"}
{"MOLECULE": "O=C(Nc1n[nH]c2cc(-c3ccccc3)ccc12)C1CC1", "inhibition": "6.53%"}
{"MOLECULE": "NC(=O)c1cc(-c2ccncc2)cc(-c2ccccc2)c1N", "inhibition": "3.97%"}
{"MOLECULE": "CCc1nccc2c1nc(-c1nonc1N)n2CC", "inhibition": "0.44%"}

* * *

target: Tyrosine-protein kinase Tec (Homo sapiens); settings: at 0.1 µM
Description: GSK_PKIS: TEC mean inhibition at 0.1 uM [Nanosyn]
Recorded inhibition for the following compounds
ENDPOINT LABEL: inhibition (%)

{"COMPOUND STRUCTURE": "COc1ccc2cc(-c3c(-c4ccncc4)nc(-c4ccc(S(C)(=O)=O)cc4C)n3C)ccc2c1", "EXPERIMENTAL SYSTEM": "Tyrosine-protein kinase Tec (Homo sapiens)", "UNITS OF MEASURE": "%", "REPORTED VALUE": 4.38}
{"COMPOUND STRUCTURE": "O=C(Nc1n[nH]c2nc(-c3ccc(O)cc3)c(Br)cc12)C1CC1", "EXPERIMENTAL SYSTEM": "Tyrosine-protein kinase Tec (Homo sapiens)", "UNITS OF MEASURE": "%", "REPORTED VALUE": 6.51}
{"COMPOUND STRUCTURE": "O=C1NC(=O)C(c2cccc(Cl)c2)=C1Nc1ccc(Cl)c(C(=O)O)c1", "EXPERIMENTAL SYSTEM": "Tyrosine-protein kinase Tec (Homo sapiens)", "UNITS OF MEASURE": "%", "REPORTED VALUE": 3.38}
{"COMPOUND STRUCTURE": "N#Cc1ccc(Oc2nccc(-c3c(-c4ccc(F)cc4)ncn3C3CCNCC3)n2)cc1", "EXPERIMENTAL SYSTEM": "Tyrosine-protein kinase Tec (Homo sapiens)", "UNITS OF MEASURE": "%", "REPORTED VALUE": 2.34}
{"COMPOUND STRUCTURE": "COC(=O)Nc1nc2ccc(Sc3ccc(NC(=O)Nc4cc(C(F)(F)F)ccc4F)cc3)cc2[nH]1", "EXPERIMENTAL SYSTEM": "Tyrosine-protein kinase Tec (Homo sapiens)", "UNITS OF MEASURE": "%", "REPORTED VALUE": 3.34}
{"COMPOUND STRUCTURE": "C/C(Nc1ccc(S(N)(=O)=O)cc1)=C1/C(=O)Nc2ccccc21", "EXPERIMENTAL SYSTEM": "Tyrosine-protein kinase Tec (Homo sapiens)", "UNITS OF MEASURE": "%", "REPORTED VALUE": -1.54}
{"COMPOUND STRUCTURE": "O=C(Nc1n[nH]c2nc(-c3ccco3)ccc12)C1CC1", "EXPERIMENTAL SYSTEM": "Tyrosine-protein kinase Tec (Homo sapiens)", "UNITS OF MEASURE": "%", "REPORTED VALUE": 1.47}
{"COMPOUND STRUCTURE": "COc1cc(Nc2ncc3c(C)nc(-c4cccc(Oc5ccccc5)c4)n3n2)cc(OC)c1OC", "EXPERIMENTAL SYSTEM": "Tyrosine-protein kinase Tec (Homo sapiens)", "UNITS OF MEASURE": "%", "REPORTED VALUE": 2.22}
{"COMPOUND STRUCTURE": "C[C@@H](Oc1cc(-n2cnc3ccc(OCC4CCN(C)CC4)cc32)sc1C(N)=O)c1ccccc1Cl", "EXPERIMENTAL SYSTEM": "Tyrosine-protein kinase Tec (Homo sapiens)", "UNITS OF MEASURE": "%", "REPORTED VALUE": 6.45}
{"COMPOUND STRUCTURE": "COc1cc(Nc2ncc3c(C)nc(-c4cccc(C(F)(F)F)c4)n3n2)cc(OC)c1OC", "EXPERIMENTAL SYSTEM": "Tyrosine-protein kinase Tec (Homo sapiens)", "UNITS OF MEASURE": "%", "REPORTED VALUE": 3.55}
{"COMPOUND STRUCTURE": "COc1ccc(C2=C(N3CCc4ccccc43)C(=O)NC2=O)cc1", "EXPERIMENTAL SYSTEM": "Tyrosine-protein kinase Tec (Homo sapiens)", "UNITS OF MEASURE": "%", "REPORTED VALUE": 5.51}

* * *

target: Vascular endothelial growth factor receptor 3 (Homo sapiens) (UniProt P35916); conditions: at 0.1 µM
Sequence (P35916 whole entry): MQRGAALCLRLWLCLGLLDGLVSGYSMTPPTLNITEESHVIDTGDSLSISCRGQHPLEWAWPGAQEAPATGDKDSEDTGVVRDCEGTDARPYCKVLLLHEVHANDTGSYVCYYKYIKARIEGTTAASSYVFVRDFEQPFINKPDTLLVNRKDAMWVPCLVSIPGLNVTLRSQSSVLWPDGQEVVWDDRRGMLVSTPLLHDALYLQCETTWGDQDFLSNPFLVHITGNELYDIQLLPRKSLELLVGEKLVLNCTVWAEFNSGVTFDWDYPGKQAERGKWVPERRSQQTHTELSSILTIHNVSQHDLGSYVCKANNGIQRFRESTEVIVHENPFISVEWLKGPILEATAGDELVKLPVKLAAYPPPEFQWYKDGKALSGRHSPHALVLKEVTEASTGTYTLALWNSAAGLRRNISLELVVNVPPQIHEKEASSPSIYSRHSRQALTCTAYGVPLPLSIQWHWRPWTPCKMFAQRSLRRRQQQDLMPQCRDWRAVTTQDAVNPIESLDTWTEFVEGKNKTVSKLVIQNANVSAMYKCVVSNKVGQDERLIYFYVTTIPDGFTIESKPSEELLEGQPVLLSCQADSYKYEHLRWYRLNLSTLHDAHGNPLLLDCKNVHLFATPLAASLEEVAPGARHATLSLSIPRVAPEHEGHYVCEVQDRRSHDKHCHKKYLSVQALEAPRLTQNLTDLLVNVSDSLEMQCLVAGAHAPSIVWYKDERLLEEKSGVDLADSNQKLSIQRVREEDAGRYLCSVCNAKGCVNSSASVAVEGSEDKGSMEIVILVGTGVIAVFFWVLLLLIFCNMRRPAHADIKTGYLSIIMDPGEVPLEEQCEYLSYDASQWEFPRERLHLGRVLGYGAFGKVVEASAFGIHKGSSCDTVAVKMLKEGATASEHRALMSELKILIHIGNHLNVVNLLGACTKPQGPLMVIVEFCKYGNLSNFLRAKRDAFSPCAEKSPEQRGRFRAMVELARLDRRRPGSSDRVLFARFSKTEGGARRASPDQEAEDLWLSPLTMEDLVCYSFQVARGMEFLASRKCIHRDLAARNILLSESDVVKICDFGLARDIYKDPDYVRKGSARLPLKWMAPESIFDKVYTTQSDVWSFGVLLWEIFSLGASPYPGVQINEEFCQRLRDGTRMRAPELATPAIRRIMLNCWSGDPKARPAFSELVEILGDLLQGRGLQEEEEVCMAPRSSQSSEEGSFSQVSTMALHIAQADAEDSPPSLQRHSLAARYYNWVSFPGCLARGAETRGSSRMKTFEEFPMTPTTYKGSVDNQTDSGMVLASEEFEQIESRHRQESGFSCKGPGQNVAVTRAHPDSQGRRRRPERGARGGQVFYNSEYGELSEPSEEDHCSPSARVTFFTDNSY
Description: GSK_PKIS: FLT4 mean inhibition at 0.1 uM [Nanosyn]
# label = fulfilled if inhibition >= 4% else not fulfilled

{"COMPOUND STRUCTURE": "Fc1ccc(-c2ncn(CCCN3CCOCC3)c2-c2ccncc2)cc1", "EXPERIMENTAL SYSTEM": "Vascular endothelial growth factor receptor 3 (Homo sapiens) (UniProt P35916)", "CATEGORY": "not fulfilled"}
{"COMPOUND STRUCTURE": "COc1cccc(/C=N/Nc2ncnc3c2cnn3-c2cccc(OC)c2)c1", "EXPERIMENTAL SYSTEM": "Vascular endothelial growth factor receptor 3 (Homo sapiens) (UniProt P35916)", "CATEGORY": "not fulfilled"}
{"COMPOUND STRUCTURE": "CCS(=O)(=O)c1ccc(OC)c(Nc2ncc(-c3ccccc3Cl)o2)c1", "EXPERIMENTAL SYSTEM": "Vascular endothelial growth factor receptor 3 (Homo sapiens) (UniProt P35916)", "CATEGORY": "fulfilled"}
{"COMPOUND STRUCTURE": "COc1cc2ncn(-c3cc(OCc4ccccc4C(F)(F)F)c(C(C)=O)s3)c2cc1OC", "EXPERIMENTAL SYSTEM": "Vascular endothelial growth factor receptor 3 (Homo sapiens) (UniProt P35916)", "CATEGORY": "not fulfilled"}
{"COMPOUND STRUCTURE": "COc1ccc2cc(-c3c(-c4ccncc4)nc(-c4ccc(S(C)(=O)=O)cc4C)n3C)ccc2c1", "EXPERIMENTAL SYSTEM": "Vascular endothelial growth factor receptor 3 (Homo sapiens) (UniProt P35916)", "CATEGORY": "fulfilled"}
